Source of measurements: ChEMBL document CHEMBL3627673

Assay: Stability of the compound in DMEM media assessed as compound remaining at 213 uM after 2 hrs by HPLC analysis
Assay type: physicochemical
Conditions: read-out: Stability
QUANTITY_NAME: remaining at 2 h, 213 µM (%)

# MOLECULE, MEAS_VALUE
rows = [
    ("CN1[C@@H]2c3c(COC(N)=O)c4c(n3C[C@@H]21)C(=O)C=CC4=O (stereo partly specified)", 8),
]

---

Experiment: Stability of the compound in DMEM media assessed as compound remaining at 213 uM after 1 hr by HPLC analysis
Type: physicochemical
Details: read-out: Stability

# MOLECULE, remaining at 1 h, 213 µM / %
measured = [
    ("CN1[C@@H]2c3c(COC(N)=O)c4c(n3C[C@@H]21)C(=O)C=CC4=O (stereo partly specified)", 25),
]
